Molecular target: T1, soluble extracellular domain of human PD-1 (human, UniProt Q15116 25-170)
T1 construct: extracellular domain
T1 sequence (Q15116 25-170): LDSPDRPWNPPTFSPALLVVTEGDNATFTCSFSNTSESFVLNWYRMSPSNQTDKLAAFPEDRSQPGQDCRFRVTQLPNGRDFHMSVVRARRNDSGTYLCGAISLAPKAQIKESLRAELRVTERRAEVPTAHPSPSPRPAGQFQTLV
Assay: BLI (ForteBio Octet Red), antibody on the biosensor, soluble PD-1 ECD as analyte
PROPERTY MEASURED: koff

Example binders with recorded koff:
BINDER: 100413_D2VH9_100414_D2VK6 (antibody, V domains shown, Mouse variable regions; cloned into pFUSE-CHIg-mG1 (murine IgG1 Fc), expressed in HEK293) VH: EVQLQESGPDLVKPSQSLSLTCTVTGYSITSGYSWHWIRQFPGNKLEWMGFIHYSGDTNYNPSLKSRFSITRDTSKNQFFLHLNSVTPEDTATYYCASPSRLLFDYWGHGTTLTVSS VL: DIVMTQSPSSLTVTAGEKVTMSCKSSQSLLNSGTQKNYLTWYQQKPGQPPKLLIYWASTRESGVPDRFTGSGSGTDFTLTISSVQAEDLAVYYCQNDYSYPLTFGAGTKLEIK
koff: 0.00226 s⁻¹

BINDER: 100246_A10VH1_100247_A10VK3 (antibody, V domains shown, Mouse variable regions; cloned into pFUSE-CHIg-mG1 (murine IgG1 Fc), expressed in HEK293) VH: EVQLQESGPGLVKPSQSLSLTCTVTGYSITSDYAWNWIRQFPGNKLEWMGYITYSGSPTYNPSLKSQFSITRDTSKNQFFLQLNSLTTEDTATYYCARGLGGHYFDYWGQGTTLTVSS VL: DIVLTQSPDTLSVTPGDRVSLSCRASQSISDYLHWYQQKSHESPRLLIKYASQSISGIPSRFSGSGSGSDFTLSINSVEPEDVGVYYCQNGHSYPYTFGGGTKLELK
koff: 0.0123 s⁻¹

BINDER: 100388_D4VH3_100389_D4VK5 (antibody, V domains shown, Mouse variable regions; cloned into pFUSE-CHIg-mG1 (murine IgG1 Fc), expressed in HEK293) VH: EVQLQESGAELVRPGASVTLSCKASGYTFTDYEMHWVKQTPVHGLEWIGVIDPGTGGTAYNQKFKVKALLTADKSSNTAYMELRSLTSEDSAVYYCTSEKFGSNYYFDYWGQGTTLTVSS VL: DIVITQTPLSLPVSLGDQASISCRSSQTIVHSDGNTYLEWYLQKPGQSPKLLIYKVSNRFSGVPDRFSGSGSGTDFTLKISRVEAEDLGVYYCFQGSHVPLTFGAGTKLEIK
koff: 0.000999 s⁻¹

Turning now to a further binder:
So what does the record say about koff for 100244_C8VH3_100245_C8VK5 (antibody, V domains shown, Mouse variable regions; cloned into pFUSE-CHIg-mG1 (murine IgG1 Fc), expressed in HEK293) VH: EVQLQESGPELVRPGASVKMSCKASGYTFTSYWMHWVKQRPGQGLEWIGMIDPSNSETSLNQKFKDKATLNVDKSTNTAYMQLSSLTSEDSAVYYCARSRGNYAYEMDYWGQGTSVTVSS VL: DIVITQTTAIMSASPGEKVTLTCSASSSVSSNYLYWYQQRPGSSPKLWIYSTSNLASGVPARFSGSGSGTSYSLTISSMEAEDAASYFCHQWSSYPPTFGSGTKLEIK ?
0.00322 s⁻¹
